# Method summary: Phase I study: plasma pharmacokinetics of single inhaled doses (Example 15)
# Assay type: in vivo, human
# Study conditions: male, human, plasma, inhaled or intranasal, 1200 ug; 1200 μg single inhaled dose; median values; read-out: tmax (converted)
Where a name gives a salt, the structure may show the parent alone.
Property measured: Tmax (min)
Give bare numbers, in min.

What does the record list as Tmax for CN1CCc2cccc3c2[C@H]1Cc1ccc(O)c(O)c1-3 [Apomorphine HCl, apomorphine hydrochloride] ?
1

====

# Method summary: Phase I study: plasma pharmacokinetics of single inhaled doses (Example 15)
# Type: in vivo, human
# Study conditions: male, human, plasma, inhaled or intranasal, 600 ug; 600 μg single inhaled dose; mean ± standard error
Counter-ions that a name gives are not always drawn.
Property measured: AUC(0-t) (ng·h/mL)
Give bare numbers, in ng·h/mL.

If you can, please state the reported AUC(0-t) value of CN1CCc2cccc3c2[C@H]1Cc1ccc(O)c(O)c1-3 [Apomorphine HCl, apomorphine hydrochloride] .
2.23

====

# Method summary: Phase I study: plasma pharmacokinetics of single inhaled doses (Example 15)
# Type: in vivo, human
# Study conditions: male, human, plasma, inhaled or intranasal, 1200 ug, 1200 μg inhaled; comparison table with Uprima
Structures can show the parent of a compound that is named as a salt.
Property measured: AUC(0-inf) (ng·h/mL)
Answers are plain numbers, in ng·h/mL.

Tell me the measured AUC(0-inf) of CN1CCc2cccc3c2[C@H]1Cc1ccc(O)c(O)c1-3 [Apomorphine HCl, apomorphine hydrochloride] , please.
5.5

====

# Method summary: Blood analysis 70 minutes after inhalation (Example 14)
# Assay type: in vivo
# Study conditions: human, inhaled, 400 μg, 400 μg inhaled, 34 patients, read-out: Blood level 70 minutes after dosing, Mean
Where a name gives a salt, the structure may show the parent alone.
Property measured: concentration at 70 min (ng/mL)
Numbers only, in ng/mL.

# query: concentration at 70 min of entry CN1CCc2cccc3c2[C@H]1Cc1ccc(O)c(O)c1-3 [Apomorphine HCl, apomorphine hydrochloride]
0.215

====

# Method summary: Phase I study: plasma pharmacokinetics of single inhaled doses (Example 15)
# Type: in vivo, human
# Study conditions: male, human, plasma, inhaled or intranasal, 600 ug, 600 μg single inhaled dose; healthy male volunteers; mean ± standard error
Where a name gives a salt, the structure may show the parent alone.
Property measured: Cmax

Dear colleague, I am looking for the recorded Cmax of the following compound: CN1CCc2cccc3c2[C@H]1Cc1ccc(O)c(O)c1-3 [Apomorphine HCl, apomorphine hydrochloride]
3.5 to 4.9 ng/mL

====

# Method summary: Phase I study: plasma pharmacokinetics of single inhaled doses (Example 15)
# Assay type: in vivo, human
# Study conditions: male, human, plasma, inhaled or intranasal, 1200 ug; 1200 μg single inhaled dose; mean ± standard error
Structures can show the parent of a compound that is named as a salt.
Property measured: AUC(0-t) (ng·h/mL)
Answers are plain numbers, in ng·h/mL.

For CN1CCc2cccc3c2[C@H]1Cc1ccc(O)c(O)c1-3 [Apomorphine HCl, apomorphine hydrochloride] , what is its reported AUC(0-t)?
4.93

====

# Method summary: Phase I study: plasma pharmacokinetics of single inhaled doses (Example 15)
# Type: in vivo, human
# Study conditions: male, human, plasma, inhaled or intranasal, 900 ug; 900 μg single inhaled dose; mean ± standard error
Counter-ions that a name gives are not always drawn.
Property measured: AUC(0-t) (ng·h/mL)
Answers are plain numbers, in ng·h/mL.

Request the reported AUC(0-t) associated with CN1CCc2cccc3c2[C@H]1Cc1ccc(O)c(O)c1-3 [Apomorphine HCl, apomorphine hydrochloride]
3.42
